TARGET_OR_SYSTEM: T1, wild type human CD47 (Acro Biosystems, cat. no. CD7-H5227) (human, UniProt Q08722 19-139)
T1 construct: Bought protein used as SPR analyte; also called Human CD47 wt; wild-type CD47
T1 sequence (Q08722 19-139 limits assumed): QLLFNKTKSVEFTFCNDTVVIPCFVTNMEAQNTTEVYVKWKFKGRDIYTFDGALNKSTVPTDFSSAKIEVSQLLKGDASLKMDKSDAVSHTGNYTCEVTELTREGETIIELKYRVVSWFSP
ASSAY: SPR, IgG captured, CD47 in flow; exp 3;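 also: other target is a CD47 mutein carrying C33G, used to obtain true monovalent affinity, with kon and koff fitted from SPR binding curves and KD derived from both rates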

| BINDER | koff |
| --- | --- |
| 108VH10.Mi / 108VL10.Me (antibody, V domains shown, 4D5-framework series; constant regions not restated for this series; also called VH10.Mi VL10.Me) VH: EVQLVESGGGLVQPGGSLRLSCAASGFTFSHHWIHWVRQAPGKGLEWVAMIDASDSETRLSDKFKDRFTISADTSKNTAYLQMNSLRAEDTAVYYCSRLGRYYFDYWGQGTLVTVSS VL: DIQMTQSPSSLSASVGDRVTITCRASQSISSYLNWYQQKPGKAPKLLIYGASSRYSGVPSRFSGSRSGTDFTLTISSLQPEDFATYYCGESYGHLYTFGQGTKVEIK | 0.0034 s⁻¹ |
| 108VH10.Mk / 108VL10.Me (antibody, V domains shown, 4D5-framework series; also called VH10.Mk VL10.Me) VH: EVQLVESGGGLVQPGGSLRLSCAASGFTFSHHWIHWVRQAPGKGLEWVAMIDASDSETRLSQKVKDRFTISADTSKNTAYLQMNSLRAEDTAVYYCSRLGRYYFDYWGQGTLVTVSS VL: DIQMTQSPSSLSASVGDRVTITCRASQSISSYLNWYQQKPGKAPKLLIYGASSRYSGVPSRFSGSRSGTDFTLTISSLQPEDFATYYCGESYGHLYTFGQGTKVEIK | 0.0086 s⁻¹ |
| chimeric antibody 108C10A6 (antibody, V domains shown, Chimeric antibody with mouse variable domains; captured through human Fc; also called VH / VL) VH: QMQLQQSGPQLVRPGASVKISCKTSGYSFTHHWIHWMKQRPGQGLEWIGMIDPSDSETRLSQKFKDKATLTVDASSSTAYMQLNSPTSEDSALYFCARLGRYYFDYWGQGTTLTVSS VL: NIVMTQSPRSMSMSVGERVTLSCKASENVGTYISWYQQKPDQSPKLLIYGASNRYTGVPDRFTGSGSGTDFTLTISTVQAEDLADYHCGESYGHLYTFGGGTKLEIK | 0.00032 s⁻¹ |
